Kindly state melting point for each of the entries shown.

Request: What value of melting point has been reported for the following compound? COc1ccc(-c2c(Cl)c(CNC(C)(C)C)nc3sc4c(c23)CCN(Cc2ccccc2)C4)cc1OC
Result: 134 to 135 °C

Request: Also, COc1ccc(NS(=O)(=O)c2cc(S(=O)(=O)Nc3ccc(OC)cc3C)c3cc(O)ccc3c2)c(C)c1 please.
Result: 211 to 213 °C

Request: Also, N#CCCNC(=O)c1cccc(-c2cccc3oc(Cc4ccc(F)c(Cl)c4)cc23)c1 please.
Result: 130 to 131 °C

Request: Also, CCCC(=O)NN(C(=O)C(=O)NN)C(=O)c1ccccc1 please.
Result: 254 °C

Request: Also, O=[N+]([O-])c1cccc(/C=C/c2nc(C3CCCCC3)cs2)c1 please.
Result: 102 to 104 °C

Cited source for all entries: a melting point compilation (Tetko et al.; mined from patent text by program, amines drawn as free bases though some values may be those of a salt)
